Hello, the source for this data is the supplement of paper PMC10266784, in case you need it.

B1: library; numbered along this chain (parent)
chain: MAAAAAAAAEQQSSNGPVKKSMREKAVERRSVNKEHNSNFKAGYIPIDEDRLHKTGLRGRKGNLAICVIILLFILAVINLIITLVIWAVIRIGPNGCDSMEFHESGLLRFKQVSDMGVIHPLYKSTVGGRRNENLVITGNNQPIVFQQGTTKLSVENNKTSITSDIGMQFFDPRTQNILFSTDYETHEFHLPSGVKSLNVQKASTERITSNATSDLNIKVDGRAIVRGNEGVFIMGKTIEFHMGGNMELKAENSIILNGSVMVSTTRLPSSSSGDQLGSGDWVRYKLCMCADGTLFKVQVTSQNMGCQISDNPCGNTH

variants of: B1; assay: SGCB cell-surface expression functional score (HA stain, bin4 vs bin1, normalised to synonymous) (log10 ratio); higher = more cell-surface SGCB (functional)
The following variants are listed with their measured SGCB cell-surface expression functional score (log10) values.
Measured Property: SGCB cell-surface expression functional score (log10)

Variant | Numeric Result
K111N | -0.45
D48C | 0.13
S302G | -0.36
T55M | 0.6
T150Y | 0
K61C | 0.35
V77C | -0.11
F296E | -1.06
V263H | 0.31
D281E | 0.11
T266N | 0.54
E206D | 0.33
N134V | -0.29
H103I | -0.36
L295D | -1.13
S38A | -0.36
I166W | -2.63
L108G | -0.9
Y44G | 0.59
I144K | -1.07
M22F | 0.1
Y123D | -0.53
N141R | 0.07
T209R | -0.83
E156F | -0.1
T213F | -0.31
V77R | -0.37
L179T | -1.12
T238G | 0.71
L84Y | -0.41
E185S | 0.53
G293W | -0.35
N158K | -0.26
I92M | -0.21
T294H | -0.74
H120T | 0.44
M305E | 0.04
D221P | 0.1
